# Tested on: Plasmodium falciparum
# procedure details: Hit confirmation in dose-response curve in NF54 pLDH assay, at 72h
# Type: functional, organism-based
# Parameters: timepoint 72 hour
# assay setup: NF54, Erythrocyte
pIC50: −log10 of the molar value.
I would appreciate it if you labelled entries label 1 when pIC50 is 6 or higher, otherwise label 0.

- smiles repr: "Cc1ccc2nc(-c3cc4ccccc4o3)cn2c1"
  label class: "label 0"

Could you please find out whether `CC[C@H](O)CN1CCC(Nc2ncnc3cc(Cl)ccc23)CC1` has pIC50 that meets 6 or exceeds it?
label 0

Could you please find out whether `Cc1ccc(Cn2c(=O)c(C(=O)NCc3ccc4c(c3)OCO4)nn(-c3ccc(C(C)C)cc3)c2=O)cc1` has pIC50 that meets 6 or exceeds it?
label 0

Could you please find out whether `Cc1cc2nc(C)c(=O)n(Cc3ccc(C(=O)NCCN4CCCC[C@@H]4C)cc3)c2cc1C` has pIC50 that meets 6 or exceeds it?
label 0

Could you please find out whether `O=c1[nH]c(=O)n(S(=O)(=O)c2ccccc2)cc1F` has pIC50 that meets 6 or exceeds it?
label 1

Could you please find out whether `CCc1ccc(-c2cc3n(n2)C[C@@](C)(C(=O)NC2CCCCC2)N(c2cc(C)cc(C)c2)C3=O)cc1` has pIC50 that meets 6 or exceeds it?
label 0

Could you please find out whether `CCN(CC)C(=O)c1cnc2snc(C)c2c1N1CCC(C(=O)Nc2c(C)cc(C)cc2C)CC1` has pIC50 that meets 6 or exceeds it?
label 0

Could you please find out whether `Cc1cc(C)cc(-c2cc3nc(C)cc(N4CCC(C(=O)NCc5cccc(F)c5)CC4)n3n2)c1` has pIC50 that meets 6 or exceeds it?
label 0

Could you please find out whether `O=C(Cc1ccc(N(Cc2cccc(F)c2)C(=O)C2CCCC2)cc1)NCCN1CCCCC1` has pIC50 that meets 6 or exceeds it?
label 1

###

# Tested on: Plasmodium falciparum
# procedure details: Hit confirmation in dose-response curve in NF54 pLDH assay, at 72h
# Format: functional, organism-based
# Design: timepoint 72 hour
# assay setup: NF54, Erythrocyte
readout type: IC50 (µM)
Numbers only, in µM.

// worked examples, IC50 included
- molecule: "CCC[N+]1(CC#C[C@@](O)(c2ccccc2)C(C)(CC)CC)CCCCC1"
  tested system: "Plasmodium falciparum"
  result units: "µM"
  recorded measurement: 4.37
- molecule: "CCC(=O)N(Cc1ccc(-c2ccc(Cl)cc2)o1)[C@H]1CCS(=O)(=O)C1"
  tested system: "Plasmodium falciparum"
  result units: "µM"
  recorded measurement: 5.13
- molecule: "COc1ccc2c(c1)[n+](CC(=O)c1ccc(-c3ccc(Br)cc3)cc1)c(CO)n2C"
  tested system: "Plasmodium falciparum"
  result units: "µM"
  recorded measurement: 5.62

Dear reader, for each entry below, please note its IC50.
1. CCC(CC)c1cc([C@H]2CN3CC[C@H]2C[C@@H]3CNS(=O)(=O)Cc2ccccc2)nc(-c2ccncc2)n1
2. CCN(CC)CC(O)COc1c(Br)cc(C(C)(C)c2cc(Br)c(OCC(O)CN(CC)CC)c(Br)c2)cc1Br (stereo not given)
3. O=C(Nc1cc(-c2onc3c2CCCC3)cc(C(F)(F)F)c1)c1cncc(Br)c1
4. O=C(CCc1ccc(Cl)c(C(F)(F)F)c1)N1CC[C@H](N2CCc3ccccc3C2)C1
5. C[C@H]1CCCN(c2nc(-c3ccccn3)nc3ccccc23)C1
6. COc1ccc(C(=O)CN2C=CCC=C2c2nc(-c3ccc(Cl)cc3)cs2)cc1

4.37
1.29
3.24
5.62
1.41
5.13

###

Kindly state IC50 for each of the entries shown.
# System: Plasmodium falciparum
# procedure details: Hit confirmation in dose-response curve in NF54 pLDH assay, at 72h
# Assay type: functional, organism-based
# Design: timepoint 72 hour
# assay setup: NF54, Erythrocyte
Give bare numbers, in nM.

- smiles repr: "CCOC(=O)c1c(CN2CCCC2)n(C)c2cc(-c3cccnc3)c(O)c(Cn3ccnc3)c12"
  result units: "nM"
  recorded measurement: 174
- smiles repr: "CCc1c2c(=O)n(-c3nc4ccccc4s3)[nH]c2cc(=O)n1CCCN1CCOCC1"
  result units: "nM"
  recorded measurement: 9550
- smiles repr: "COc1ccccc1CN1COc2cc3c(cc2C1)OCO3"
  result units: "nM"
  recorded measurement: 2090

Dear reader, for each entry below, please note its IC50.
1. O=C(c1cc(-c2ccco2)n[nH]1)N1CCC(N2CCC(Oc3ccccc3F)CC2)CC1
2. O=C(Nc1nc2cccc(Cl)c2o1)c1cccc(F)c1
3. Cc1ccc[n+](Cc2ccc3ccccc3n2)c1

1820
2000
3240

Dear reader, for each entry below, please note its IC50.
1. Cc1ccc(C(=O)N(Cc2cccc(F)c2)c2ccc(CC(=O)N[C@@H](C)c3ccccc3)cc2)cc1
2. O=C(NC1=NN2C(=NC(c3ccc(Cl)cc3)=C[C@H]2c2ccc(F)cc2)N1)c1ccc(Cl)cc1
3. c1ccc(CCNc2nc(-c3ccccn3)cs2)cc1
4. CCc1ccc(NC(=O)[C@H](C)N2CCC(NS(=O)(=O)c3cccs3)CC2)cc1

1. 4270
2. 2950
3. 3240
4. 4170

Dear reader, for each entry below, please note its IC50.
1. Oc1ccccc1CCN[C@H]1CCc2ccc(F)cc21
2. O=C(Nc1ccccc1)Nc1cnc(-n2ccnc2)nc1

[309, 3550]

###

Kindly state IC50 for each of the entries shown.
# Tested on: Plasmodium falciparum
# procedure details: Hit confirmation in dose-response curve in NF54 pLDH assay, at 72h
# Format: functional, organism-based
# Design: timepoint 72 hour
# assay setup: NF54, Erythrocyte
Give bare numbers, in µM.

// worked examples, IC50 included
- compound: "O=C(Nc1nncs1)c1cccc(C(=O)Nc2nncs2)n1"
  result units: "µM"
  IC50: 3.24
- compound: "CC(C)CC[C@@H](CCNCCN(C)C)c1ccc(Cl)cc1"
  result units: "µM"
  IC50: 1.02
- compound: "Clc1cccc(CNCCCNc2ccncc2)c1Cl"
  result units: "µM"
  IC50: 2
- compound: "CCCN(CCC)CCN1C(=O)[C@@H]2C(C(=O)Nc3cc(Cl)cc(Cl)c3)[C@@H]3C=C[C@]2(O3)C1C(=O)NC1CCCCC1 (stereo partly specified)"
  result units: "µM"
  IC50: 3.72
- compound: "O=S(=O)(Nc1ccc(O)c2cccnc12)N1CCCC1"
  result units: "µM"
  IC50: 1.32
- compound: "C[C@H](N)c1ccc(Nc2ncc3cc(-c4ccncc4)ccc3n2)cc1"
  result units: "µM"
  IC50: 2.69

Dear reader, for each entry below, please note its IC50.
1. Cn1n[n+](CCCCC(Cl)(Cl)Cl)c2ccccc21
2. O=S(=O)(Nc1cccc2cccnc12)c1cccs1
3. COc1ccc2cccc(NC(=O)c3cc(-c4cc(OC)c(OC)c(OC)c4)n[nH]3)c2n1
4. Cc1nnc(-c2ccc3ccn(CC(=O)Nc4ccc(F)c(Cl)c4)c3c2)o1

3.31
5.62
9.77
1

###

# Test system: Plasmodium falciparum
# procedure details: Re-testing in dose-response curve in 3D7 pLDH assay, at 72h
# Type: functional, organism-based
# Set-up: timepoint 72 hour
# assay setup: 3D7, Erythrocyte
readout type: IC50 (µM)
One number for each entry, in µM.

- compound: "C[C@H](N)c1ccc(Nc2ncc3cc(-c4ccncc4)ccc3n2)cc1"
  result units: "µM"
  recorded measurement: 1.05
- compound: "CN(CCNC(=O)CCc1cn(-c2ccccc2)nc1-c1ccc2c(c1)OCO2)C1CCCCC1"
  result units: "µM"
  recorded measurement: 0.545
- compound: "Oc1ccccc1CCN[C@H]1CCc2ccc(F)cc21"
  result units: "µM"
  recorded measurement: 0.429

Dear reader, for each entry below, please note its IC50.
1. CCOc1cccc(-c2ccc3nc(-c4cccc(OC)c4)c(CCC(=O)NCCN4CCCC4)n3c2)c1
2. Clc1cccc(CNCCCNc2ccncc2)c1Cl
3. Cc1ccc(NC(=O)c2c(C)nc3sc(C(=O)NCc4ccccc4)c(N)c3c2-c2ccccc2Cl)c(C)c1
4. C[C@H]1CCN(c2nc(-c3ccccn3)nc3c2CCC3)C1

1: 0.0548; 2: 1.15; 3: 1.08; 4: 2.15

###

Kindly state pIC50 for each of the entries shown.
# Test system: Plasmodium falciparum
# procedure details: Hit confirmation in dose-response curve in NF54 nanoGlo assay, at 72h
# Assay type: functional, organism-based, Erythrocyte
# Design: timepoint 72 hour
# assay setup: Plasmodium falciparum, NF54, Erythrocyte, 72 h
Answers are plain numbers, as −log10 of the molar value.

// worked examples, pIC50 included
- compound: "O=C(NC1=NN2C(=NC(c3ccc(Cl)cc3)=C[C@H]2c2ccc(F)cc2)N1)c1ccc(Cl)cc1"
  recorded measurement: 5.64
- compound: "CN(C)c1noc(CN2CCc3ccc(F)cc3C2)n1"
  recorded measurement: 5.30
- compound: "Cc1nnc(CNC(=O)Nc2cccc3c4c(oc23)CCCC4)o1"
  recorded measurement: 5.67

Dear reader, for each entry below, please note its pIC50.
1. CCC(C)NCC(O)Cn1c(-c2ccccc2)c(-c2ccccc2)c2cc(C)ccc21 (stereo not given)
2. COc1c(C)cc(C(=O)[C@H]2CCCN(c3cc(N)ncn3)C2)cc1C
3. COc1ccc(C)c2sc(N(CCCn3ccnc3)C(=O)Cc3ccc(F)cc3)nc12
4. NC1CC(NCCc2cccc3cccnc23)c2ccccc21 (stereo not given)
5. CCc1ccc(C(=O)Nc2cnc(-n3ccnc3)nc2)cc1
6. CC(Oc1ccc2c(c1)C(c1ccccc1)N(Cc1ccccc1F)CC2)C(=O)NC1CC1 (stereo not given)
7. Cc1ccc(NC(=O)Nc2cc(C)ccc2N2CCCN(Cc3ccc(F)cc3)C2=O)cc1

1. 5.99
2. 5.27
3. 5.71
4. 5.61
5. 5.30
6. 5.57
7. 5.26
